testTarget: PI3K-α (Homo sapiens, UniProt P42336)
Sequence (P42336 whole entry, species assumed): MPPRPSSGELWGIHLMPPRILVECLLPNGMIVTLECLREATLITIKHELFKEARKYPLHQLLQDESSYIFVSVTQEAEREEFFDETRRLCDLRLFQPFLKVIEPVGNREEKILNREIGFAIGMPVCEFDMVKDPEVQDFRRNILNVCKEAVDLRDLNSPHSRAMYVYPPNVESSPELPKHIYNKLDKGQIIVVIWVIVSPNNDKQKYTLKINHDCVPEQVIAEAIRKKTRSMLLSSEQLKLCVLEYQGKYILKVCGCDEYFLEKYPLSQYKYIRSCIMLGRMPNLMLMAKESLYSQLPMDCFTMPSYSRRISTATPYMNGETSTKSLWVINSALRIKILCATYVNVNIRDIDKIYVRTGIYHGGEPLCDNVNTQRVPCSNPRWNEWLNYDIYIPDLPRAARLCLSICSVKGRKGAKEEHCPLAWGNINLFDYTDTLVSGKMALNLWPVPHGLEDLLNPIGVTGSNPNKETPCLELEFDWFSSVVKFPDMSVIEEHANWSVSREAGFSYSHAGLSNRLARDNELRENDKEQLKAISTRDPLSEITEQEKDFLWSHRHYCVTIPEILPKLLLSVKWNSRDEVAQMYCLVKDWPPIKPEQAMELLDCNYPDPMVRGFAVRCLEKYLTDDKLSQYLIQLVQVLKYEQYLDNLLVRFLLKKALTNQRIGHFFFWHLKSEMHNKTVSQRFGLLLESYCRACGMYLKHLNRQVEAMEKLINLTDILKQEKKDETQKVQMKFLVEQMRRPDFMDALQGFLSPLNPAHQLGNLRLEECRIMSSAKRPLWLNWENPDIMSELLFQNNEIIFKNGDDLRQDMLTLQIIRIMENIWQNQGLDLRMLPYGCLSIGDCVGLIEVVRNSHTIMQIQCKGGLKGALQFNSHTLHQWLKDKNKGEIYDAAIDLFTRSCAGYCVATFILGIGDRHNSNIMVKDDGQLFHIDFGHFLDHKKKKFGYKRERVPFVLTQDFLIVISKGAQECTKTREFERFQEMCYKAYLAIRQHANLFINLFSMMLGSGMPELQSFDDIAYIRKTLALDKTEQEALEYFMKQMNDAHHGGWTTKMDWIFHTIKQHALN
Sequence (P27986 whole entry partner, species assumed): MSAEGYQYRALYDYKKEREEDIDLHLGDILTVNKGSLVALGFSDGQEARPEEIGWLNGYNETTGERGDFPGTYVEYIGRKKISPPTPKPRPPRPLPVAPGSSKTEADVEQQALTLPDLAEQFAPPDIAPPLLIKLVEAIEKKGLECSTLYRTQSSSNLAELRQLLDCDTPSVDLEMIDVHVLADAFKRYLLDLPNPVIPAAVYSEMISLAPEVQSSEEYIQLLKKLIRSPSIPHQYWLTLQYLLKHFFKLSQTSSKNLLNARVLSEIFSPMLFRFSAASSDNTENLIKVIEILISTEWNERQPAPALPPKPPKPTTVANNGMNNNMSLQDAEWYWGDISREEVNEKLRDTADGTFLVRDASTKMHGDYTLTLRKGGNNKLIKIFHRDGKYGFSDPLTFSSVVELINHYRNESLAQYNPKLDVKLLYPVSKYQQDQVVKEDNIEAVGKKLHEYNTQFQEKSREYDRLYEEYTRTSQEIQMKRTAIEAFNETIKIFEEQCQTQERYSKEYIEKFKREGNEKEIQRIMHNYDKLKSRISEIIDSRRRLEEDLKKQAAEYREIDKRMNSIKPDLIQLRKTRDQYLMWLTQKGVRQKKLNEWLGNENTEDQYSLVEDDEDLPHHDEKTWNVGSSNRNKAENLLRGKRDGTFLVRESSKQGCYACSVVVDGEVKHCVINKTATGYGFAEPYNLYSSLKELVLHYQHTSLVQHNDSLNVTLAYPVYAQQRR
experiment: PI3K-alpha fluorescence polarization assay
recordedConditions: read-out: IC50 PI3Kα
Listed next: entries and their corresponding IC50.
endpointName: IC50 (nM)

CN1CCN(C2CCN(c3nc(-c4ccc(NC(=O)Nc5ccncc5)cc4)nc(N4CC5CCC(C4)O5)n3)CC2)CC1 [Example 122]	1160
C[C@H]1COCCN1c1nc(-c2ccc(NC(=O)Nc3ccc(C(=O)N(C)CCN(C)C)cc3)cc2)nc(N2C3CCC2COC3)n1 [Example 831]	3.3
CC(C)NC(=O)Nc1ccc(-c2nc(N3CCOCC3)nc(N3C4CCC3COC4)n2)cc1 [Example 44]	1580
Cc1ccc(-c2nc(-c3ccc(NC(=O)Nc4ccc(C(=O)O)cc4)cc3)nc(N3CCOCC3)n2)cc1 [Example 342]	20
